From: PubChem BioAssay (NCATS)

Reported values of activation for individual entries
Target: Cellular tumor antigen p53 (Homo sapiens)
Assay: Primary qHTS for small molecule compounds that upregulate eGFP-tagged delta133p53alpha (in N-terminal) cells. (AID 2060322);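 note: cells pre-induced with doxycycline then dosed without doxycycline; series mostly up to about 56 µM; 0% = DMSO vehicle and 100% = reference activator; nearly all actives have a fitted effect of over 75% in size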
Conditions: NCI-H358 eGFP-delta133p53alpha fluorescence, 24 h; stronger effect = higher value
Results filed as inconclusive are left out.
Give a bare numeral; the unit % is implied.

Study these solved cases before continuing.
Compound	activation, %
CC(C)C1=CC2=CCC3[C@](C)(CCC[C@@]3(C)C(=O)O)C2CC1=O (stereo partly drawn)	8.93
O=C(Nc1ccc(S(=O)(=O)C(F)(F)F)cc1)C1=CCN(c2ncccc2C(F)(F)F)CC1	-1.91
Cc1c(NC(C)C)c(=O)n(-c2ccccc2)n1C	11.7

Sure, the documented activation for CNC(=O)c1cc(COc2nnc(Nc3ccc(Cl)cc3)c3ccoc23)ccn1 is -2.64

Note to self: activation recorded for Nc1ccc(N2C(=O)c3ccccc3C2=O)c(Cl)c1 was -1.82

The compound CC(=O)O[C@@H]1C[C@H](O)[C@@]23CO[C@H](O)[C@]1(C)C2C[C@@H](O)[C@]1(C)C3C(=O)[C@H](OC(C)=O)[C@@]2(C)[C@H](c3ccoc3)C[C@H]3O[C@]321 (stereo partly drawn) showed activation equal to -1.79

The value of activation measured for the compound C[C@@H]1C[C@@H](O)[C@@]2(CO)C(CO)=CCC[C@@H]2[C@@]12C[C@@H](c1ccoc1)OC2=O turned out to be 21.4

Recorded result, C[C@H]1C[C@H]2[C@@H]3CCC4=CC(=O)C=C[C@]4(C)[C@@]3(F)[C@@H](O)C[C@]2(C)[C@@]1(O)C(=O)COP(=O)(O)O , activation: 1

Note to self: activation recorded for CN(C)C(N)=NCCC[C@H](N)C(=O)O was -10.9

Query Cn1cc(-c2ccc3nnc(Sc4ccc5nn(C)cc5c4)n3n2)cn1 yields activation of -4.46

Recorded result, COc1cc([C@@H]2c3cc4c(cc3[C@H](O)[C@H]3COC(=O)[C@H]23)OCO4)cc(OC)c1OC , activation: 24.1

activation reading for COc1cc2c(cc1OC)N1C(=O)C[C@]34C=CCN5CC[C@@H]2[C@@H](CC3)[C@]514 : 3.05

response.value for CC(=O)Nc1ccc(/C=N/NC(N)=S)cc1 (field: activation) = -14.2

Reported activation of CC(=O)N(O)CCCCCN1C(=O)CCC1=O : -6.25

Per the records, this compound ( CCCCCCCCCCCCCCCCCCOCC(O)CO (stereo not drawn) ) has activation equal to -16.4

Sample CC(=O)[C@H]1CC[C@H]2[C@@H]3CC=C4C[C@@H](OS(=O)(=O)O)CC[C@]4(C)[C@H]3CC[C@]12C ; activation observed: -4.33

C[C@@H]1O[C@@H](O[C@H]2[C@@H]3C=CO[C@@H](O[C@@H]4O[C@H](CO)[C@@H](O)[C@H](O)[C@H]4O)[C@@H]3[C@@]3(CO)O[C@@H]23)[C@H](OC(=O)/C=C/c2ccc(O)c(O)c2)[C@H](O)[C@H]1O has a reported activation of -5.34

activation reading for CN1CCN(C2=Nc3cc(F)ccc3Cc3ccccc32)CC1 : -11.9

====

Quick reference for activation among some molecules
Target: Cellular tumor antigen p53 (Homo sapiens) (UniProt P04637)
Sequence (P04637 whole entry, looked up): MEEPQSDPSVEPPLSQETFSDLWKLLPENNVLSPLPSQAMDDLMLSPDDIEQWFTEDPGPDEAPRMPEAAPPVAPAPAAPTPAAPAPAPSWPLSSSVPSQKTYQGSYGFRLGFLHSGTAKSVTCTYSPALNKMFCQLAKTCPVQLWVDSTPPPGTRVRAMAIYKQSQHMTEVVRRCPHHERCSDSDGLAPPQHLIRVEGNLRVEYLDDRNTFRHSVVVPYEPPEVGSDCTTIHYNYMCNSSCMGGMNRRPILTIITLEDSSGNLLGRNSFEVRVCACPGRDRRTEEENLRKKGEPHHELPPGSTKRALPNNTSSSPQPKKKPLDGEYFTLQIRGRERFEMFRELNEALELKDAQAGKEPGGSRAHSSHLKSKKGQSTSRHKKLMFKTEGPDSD
Assay: Primary qHTS for small molecule compounds that upregulate eGFP-tagged delta133p53alpha (in N-terminal) cells. (AID 2060322);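 note: cells pre-induced with doxycycline then dosed without doxycycline; series mostly up to about 56 µM; 0% = DMSO vehicle and 100% = reference activator; nearly all actives have a fitted effect of over 75% in size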
Conditions: NCI-H358 eGFP-delta133p53alpha fluorescence, 24 h; stronger effect = higher value
Inconclusive results are not listed.
API: value field is a number in %; no unit string.

// known answers, use as guide
Molecule	Target Or System	activation (%)
Cc1cccc(C)c1NC(=O)c1cc(S(N)(=O)=O)c(Cl)cc1O	Cellular tumor antigen p53 (Homo sapiens) (UniProt P04637)	-9.21
CC1=C2C3OC(=O)C(C)C3(O)CCC2(C)CCC1O (stereo not given)	Cellular tumor antigen p53 (Homo sapiens) (UniProt P04637)	-10.7
COC(CCc1ccc(O)cc1)CC(=O)CCc1ccc(O)cc1 (stereo not given)	Cellular tumor antigen p53 (Homo sapiens) (UniProt P04637)	7.63

Could you now consider this next molecule?
Looking up COCc1nc2c([nH]1)c(=O)n(C)c(=O)n2CC(C)C , I found its activation recorded as 12.4

====

Assay: BET inhibitor-based combinations targeting novel dependencies in MECOM-rearranged (r) AML: SET-2 cell line (AID 2202231); note: potency is the fitted concentration of half-maximal effect; nearly all actives have a fitted effect of over 35% in size
Settings: SET-2 AML cells viability, CellTiter-Glo luminescence, 48 h
Inconclusive results are not listed. Calls of active or inactive are those of the source. The call rests on the fitted dose curve; in most records, active means well fitted inhibition curve with a large enough effect; inconclusive means small, poorly fitted or top-dose-only effect; inactive means no such curve, though single readings can be large or run the other way.
Value Kind: Potency

The recorded Potency for entry CCN(CC)Cc1ccc2cc(COC(=O)Nc3ccc(C(=O)NO)cc3)ccc2c1 equals 0.662 µM (active)

The reported value for CN(c1ncccc1CNc1nc(Nc2ccc3c(c2)CC(=O)N3)ncc1C(F)(F)F)S(C)(=O)=O in terms of Potency is 6.61 µM (active)

====

Biological target: Cellular tumor antigen p53 (Homo sapiens) (UniProt P04637)
Test: Primary qHTS for small molecule compounds that upregulate eGFP-tagged delta133p53alpha (in N-terminal) cells. (AID 2060322);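 note: cells pre-induced with doxycycline then dosed without doxycycline; series mostly up to about 56 µM; 0% = DMSO vehicle and 100% = reference activator; nearly all actives have a fitted effect of over 75% in size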
Details: NCI-H358 eGFP-delta133p53alpha fluorescence, 24 h; stronger effect = higher value
Results filed as inconclusive are left out. Bridge positions count the residues as written; N and C are the ends. Square brackets hold non-standard residues; d marks the D form. Peptide text beside a SMILES is read from it. NMeY = CN[CH](Cc1ccc(O)cc1)C(=O)O
Value Kind: activation (%)
Numeric answer only, unit % assumed.

Recorded activation, per entry:
Compound	U	activation
NC(=Nc1ccccc1)NC(=O)c1nc(Cl)c(N)nc1N	%	-28.9
O=C(O)c1ccccc1NC(=O)N1CCC(c2ccccc2C(F)(F)F)CC1	%	-3.34
CCC(C)C1NC(=O)C2CCCN2C(=O)C(NC(C)=O)C(C)OC(=O)C(Cc2ccc(OC)cc2)N(C)C(=O)C2CCCN2C(=O)C(C(C)C)NC1=O (stereo not drawn) (Ac-TPIVP[NMeY](Me); ester 1-C; configuration not given here)	%	15.3
CC1(C)CC[C@]2(C(=O)O[C@@H]3O[C@H](CO)[C@@H](O)[C@H](O)[C@H]3O)[C@H](O)C[C@]3(C)C(=CCC4[C@@]5(C)CC[C@H](O[C@@H]6OC[C@@H](O)[C@H](O)[C@H]6O)[C@@](C)(C(=O)O)C5CC[C@]43C)[C@@H]2C1 (stereo partly drawn)	%	-16.8
Cc1cc(=O)oc2cc(O[C@@H]3SC[C@@H](O)[C@H](O)[C@H]3O)ccc12	%	23.2
CN(C)C(=O)Nc1ccc(Cl)c(Cl)c1	%	13.4
O=C(CCCCc1ccc2ccccc2c1)C(F)(F)F	%	4.33
O=c1[nH]c(=O)n([C@H]2C[C@@H](O)[C@@H](CO)O2)cc1F	%	-18.9

# compound CC1=CC(=O)CC(C)(C)[C@@]1(O)/C=C/C(C)O[C@@H]1O[C@H](CO)[C@@H](O)[C@H](O)[C@H]1O (stereo partly drawn) ; its activation = 15.3

Entry under test: Cc1ccccc1-n1nc(-c2c(-c3ccc(F)cc3)nn3c2NC[C@@H](CO)C3)ccc1=O . Its activation was 2.68

====

activation: recorded values
Target: Cellular tumor antigen p53 (Homo sapiens)
Assay: Primary qHTS for small molecule compounds that upregulate eGFP-tagged delta133p53alpha (in N-terminal) cells. (AID 2060322);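 note: cells pre-induced with doxycycline then dosed without doxycycline; series mostly up to about 56 µM; 0% = DMSO vehicle and 100% = reference activator; nearly all actives have a fitted effect of over 75% in size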
Conditions: NCI-H358 eGFP-delta133p53alpha fluorescence, 24 h; stronger effect = higher value
Source text: Assay Development and Screening Technology National Center for Advancing Translational Sciences (NCATS), National Institute of Health (NIH), Rockville, Maryland Cellular senescence (CS) is one of the hallmarks of aging and age-related diseases. […] Here we report the development and validation of a cell-based quantitative high throughput screening (qHTS) assay in 1,536-well format. […]
Records with an inconclusive call do not appear.
Write the number in % without appending the unit.

These solved cases illustrate the format of a correct answer.
> print(dat)
                                   compound                          target.or.system  value.kind  numeric.value
1  C[C@]12CCC3c4ccc(O)cc4CCC3C1CCC2=O (stereo not given in full)  Cellular tumor antigen p53 (Homo sapiens)  activation         -0.196
2   CCn1c(=O)c(-c2ccn[nH]2)cc2c(C)nc(N)nc21  Cellular tumor antigen p53 (Homo sapiens)  activation           4.46
3  CN(C)[C@@H]1C(=O)C(C(=O)NCN2CCCC2)=C(O)[C@@]2(O)C(=O)C3=C(O)c4c(O)cccc4[C@@](C)(O)C3C[C@@H]12 (stereo not given in full)  Cellular tumor antigen p53 (Homo sapiens)  activation            -13

The compound listed as C[C@@H]1CC[C@@]2(OC1)O[C@H]1C[C@H]3[C@@H]4CC=C5C[C@@H](O)CC[C@]5(C)[C@H]4CC[C@]3(C)[C@H]1[C@@H]2C has a reported activation of -4.46

// CNC(=O)[C@@H](c1ccccc1)N1CCc2cc(OC)c(OC)cc2[C@@H]1CCc1ccc(C(F)(F)F)cc1 : activation value = -3.34

Lookup result for C=C(C)C1CC=C(C(=O)O)CC1 (stereo not given) ; measured activation: -6.28

Entry O=C(O)[C@H](Cc1ccccc1)Oc1ccc(-c2ccccc2)cc1 , activation reported as -3.34

Entry CC(=O)OC1(C)CC(O)C2(O)C=COC(OC3OC(CO)C(O)C(O)C3O)C12 (stereo not given) , activation reported as -16.8

# compound NS(=O)(=O)c1cc(-c2nn[nH]n2)c(NCc2cccs2)cc1Cl ; its activation = 5.02

Just so you know, measured activation for CC(C)C(NC(=O)c1ccc(O)cc1)C(=O)N1CCCC1C(=O)Nc1c(O)cccc1C(=O)O (stereo not given) came out at -0.763

// field: activation; key: COc1cc(O)c2c(c1)C1=C[C@H](O)[C@@H](O)C[C@]1(C)OC2=O ; value = 1.53

Measured activation of COc1ccc([C@@H]2CNC(=O)C2)cc1OC1CCCC1 : 7.46

Summary for this compound, CCCN(CC1CC1)c1nc(C)nc(Nc2c(Cl)cc(Cl)cc2Cl)c1Cl : activation is -22.7

# activation (compound: CC1=CC23[C@H](C=C(C(=O)O)[C@@H]2COC(=O)[C@]3(O)CO)[C@@H]1C (stereo not given in full) ) is -6.87

Input Cn1ccc(NC(=O)c2cc(Oc3ccc(C(=O)N4CCC4)c(F)c3)c3c(c2)OC(C)(C)C3)n1 . Output activation: -12.3
